# T/C per entry
test system: B6C3F1 mice, intracerebral ependymoblastoma, median survival T/C; assay: NCI In Vivo Anticancer Drug Screen. Data for tumor model Ependymoblastoma (intracerebral) in B6C3F1 mice; settings: endpoint: median survival time; dose: 64.0 mg/kg/injection; schedule: Q01DX005 (ip); vehicle: Klucel (hydroxypropylcellulose) (HPC); higher = longer survival
Toxic doses and inconclusive results are not listed.

COc1ccc2c(c1)CCC(c1ccccc1)=C2c1ccc(OCCN2CCCC2)cc1 | 101 % of control
Cc1c[nH]c(=O)[nH]c1=O | 104 % of control
COCC(O)Cn1ccnc1[N+](=O)[O-] (stereo unspecified) | 96 % of control
NC(CSC(c1ccccc1)(c1ccccc1)c1ccccc1)C(=O)O (stereo unspecified) | 107 % of control
CCCCCC(=O)O[C@]1(C(C)=O)CC[C@H]2[C@@H]3CCC4=CC(=O)CC[C@]4(C)[C@H]3CC[C@@]21C | 101 % of control

We next turn to a different compound, shown below.
So what's the measured T/C for this one? Nc1ncnc2c1ncn2C1OC(CO)C(O)C1O (stereo unspecified)
101 % of control
